system: NCI-H727; assay: cells; type: functional, cell-based, Homo sapiens; details: nci-h727;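 further: growth inhibition of human NCI-H727 cells, read out with a cell viability assay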
Description: SANGER: Inhibition of human NCI-H727 cell growth in a cell viability assay.
measurement-name: pIC50
One number for each entry, as −log10 of the molar value.

[[record]]
query_sequence = "BLEOMYCIN"
test_target = "NCI-H727"
numeric_readout = 4.99


Now look at this entry.
Return reported pIC50; argument: CISPLATIN
3.16

###

Would you kindly list IC50 for each of these molecules?
test system: Huh-7; test: cells; type: functional, cell-based, Homo sapiens; conditions: Homo sapiens, Huh-7
Description: SANGER: Inhibition of human HuH-7 cell growth in a cell viability assay.

Solved cases below.
[[record]]
molecule = "Nc1cccc2c1CN(C1CCC(=O)NC1=O)C2=O (stereo not drawn) [LENALIDOMIDE]"
result = "> 5000 nM"

[[record]]
molecule = "O=C(O)c1ccc(-c2c[nH]c3ncc(-c4ccccc4)cc23)cc1C1CCCC1 [GSK-650394]"
result = "> 16000 nM"


Consider the additional molecule presented here.
What measured IC50 goes with CC(C)c1ccccc1Cc1cc(C(=O)Nc2ccc(S(=O)(=O)c3ccccc3C(C)(C)C)cc2)c(O)c(O)c1O ?
32.8 nM

###

system: CA46; test: cells; format: functional, cell-based, Homo sapiens; conditions: Homo sapiens, CA46;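 further: growth inhibition of human CA46 cells, read out by a cell viability assay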
Description: SANGER: Inhibition of human CA46 cell growth in a cell viability assay.
Structures can show the parent of a compound that is named as a salt.
measurement-name: pIC50
Answers are plain numbers, as −log10 of the molar value.

Worked cases, answers included:
[[record]]
compound = "Nc1ccn([C@@H]2O[C@H](CO)[C@@H](O)C2(F)F)c(=O)n1"
numeric_readout = 6.53

[[record]]
compound = "Cc1cc([N+](=O)[O-])ccc1NS(=O)(=O)c1cc(Cl)ccc1Cl"
numeric_readout = 5.14


Now look at this one.
Value lookup for pIC50; key = COC1=CC(c2cc3ccccc3[nH]2)=N/C1=C\c1[nH]c(C)cc1C [OBATOCLAX MESYLATE]
7.18

###

I'd be grateful if you could share measured IC50 for these entries.
test system: K562; assay: cells; format: functional, cell-based, Homo sapiens; details: Homo sapiens, K562
Description: SANGER: Inhibition of human K-562 cell growth in a cell viability assay.

# count of solved cases: 2
[[record]]
compound = "COc1cc2ncn(-c3cc(OCc4ccccc4S(C)(=O)=O)c(C#N)s3)c2cc1OC [GSK-319347A]"
result = "> 5000 nM"

[[record]]
compound = "Nc1cccc2c1CN(C1CCC(=O)NC1=O)C2=O (stereo not drawn) [LENALIDOMIDE]"
result = "> 5000 nM"


Please turn your attention to the following entry.
Which IC50 value is on record for Nc1ccn([C@@H]2O[C@H](CO)[C@@H](O)C2(F)F)c(=O)n1 [GEMCITABINE] ?
333 nM

###

system: NB14; assay: cells; format: functional, cell-based, Homo sapiens; conditions: Homo sapiens, NB14;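 further: growth inhibition of NB14 cells measured with a cell viability assay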
Description: SANGER: Inhibition of human NB14 cell growth in a cell viability assay.
pIC50: −log10 of the molar value.
measurement-name: pIC50

Reference set (2 entries):
[[record]]
smiles = "C#Cc1cccc(Nc2ncnc3cc(OCCOC)c(OCCOC)cc23)c1"
measurement_name = "pIC50"
result = "< 5.70"

[[record]]
smiles = "CS(=O)(=O)c1ccc(C(=O)Nc2ccc(Cl)c(-c3ccccn3)c2)c(Cl)c1"
measurement_name = "pIC50"
result = "< 5.00"


Switching to the query record.
Form field: pIC50 recorded for CO[C@H]1C[C@@H]2CC[C@@H](C)[C@@](O)(O2)C(=O)C(=O)N2CCCC[C@H]2C(=O)O[C@H]([C@H](C)C[C@@H]2CC[C@@H](OC(=O)C(C)(CO)CO)[C@H](OC)C2)CC(=O)[C@H](C)/C=C(\C)[C@@H](O)[C@@H](OC)C(=O)[C@H](C)C[C@H](C)/C=C/C=C/C=C/1C with NB14 (enter value)
7.00

###

tested on: DoTc2-4510; experiment: cells; type: functional, cell-based, Homo sapiens; conditions: dotc2-4510
measurement-name: IC50 (nM)
Answers are plain numbers, in nM.

Field request: IC50 | item: BLEOMYCIN
378

###

system: HuO-3N1; assay: cells; assay type: functional, cell-based, Homo sapiens; conditions: huo-3n1;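 further: cell viability readout used to measure how strongly compounds suppress proliferation of human HuO-3N1 cells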
Description: SANGER: Inhibition of human HuO-3N1 cell growth in a cell viability assay.
measurement-name: pIC50
Give bare numbers, as −log10 of the molar value.

Give recorded pIC50 with HuO-3N1 for the following sequence: BLEOMYCIN
4.06

###

test system: Ramos-2G6-4C10; test: cells; type: functional, cell-based, Homo sapiens; conditions: ramos-2g6-4c10;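 further: growth inhibition of the cell line, measured by a cell viability read-out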
Description: SANGER: Inhibition of human Ramos-2G6-4C10 cell growth in a cell viability assay.
measurement-name: pIC50
Numbers only, as −log10 of the molar value.

[[record]]
query_sequence = "BLEOMYCIN"
test_target = "Ramos-2G6-4C10"
numeric_readout = 5.01


Turning now to a further sequence:
// pIC50 lookup, key: CISPLATIN
4.58

###

Would you kindly list IC50 for each of these compounds?
test system: LS-513; assay: cells; assay type: functional, cell-based, Homo sapiens; conditions: Homo sapiens, LS-513
Description: SANGER: Inhibition of human LS-513 cell growth in a cell viability assay.

[[record]]
compound = "CS(=O)(=O)c1ccc(C(=O)Nc2ccc(Cl)c(-c3ccccn3)c2)c(Cl)c1 [VISMODEGIB]"
measurement_name = "IC50"
result = "> 10000 nM"

[[record]]
compound = "Nc1ccn([C@@H]2O[C@H](CO)[C@@H](O)C2(F)F)c(=O)n1 [GEMCITABINE]"
measurement_name = "IC50"
result = "888 nM"

[[record]]
compound = "N#Cc1c(O)c2c(-c3ccc(-c4ccccc4O)cc3)csc2[nH]c1=O"
measurement_name = "IC50"
result = "> 1020 nM"


I would be grateful if you could provide IC50 for each of the following entries.
1. CO[C@H]1C[C@@H]2CC[C@@H](C)[C@@](O)(O2)C(=O)C(=O)N2CCCC[C@H]2C(=O)O[C@H]([C@H](C)C[C@@H]2CC[C@@H](OC(=O)C(C)(CO)CO)[C@H](OC)C2)CC(=O)[C@H](C)/C=C(\C)[C@@H](O)[C@@H](OC)C(=O)[C@H](C)C[C@H](C)/C=C/C=C/C=C/1C [TEMSIROLIMUS]
2. Oc1ccc2ccccc2c1SSc1c(O)ccc2ccccc12
3. OCCCNc1cc(-c2ccnc(Nc3cccc(Cl)c3)n2)ccn1
4. CCN(CC)CCCCNc1ncc2cc(-c3cc(OC)cc(OC)c3)c(NC(=O)NC(C)(C)C)nc2n1 [PD-173074]

1. > 200 nM
2. > 32000 nM
3. > 256 nM
4. > 2000 nM

###

tested on: ES3; test: cells; type: functional, cell-based, Homo sapiens; details: Homo sapiens, ES3
Description: SANGER: Inhibition of human ES3 cell growth in a cell viability assay.
pIC50: −log10 of the molar value.
measurement-name: pIC50

These solved cases illustrate the format of a correct answer.
[[record]]
molecule = "CCN(CC)CCCCNc1ncc2cc(-c3cc(OC)cc(OC)c3)c(NC(=O)NC(C)(C)C)nc2n1"
result = "< 5.70"

[[record]]
molecule = "CCC/C=C/C=C/C(=O)O[C@H]1/C(=C/C(=O)OC)C[C@H]2C[C@H]([C@@H](C)O)OC(=O)C[C@H](O)C[C@@H]3C[C@H](OC(C)=O)C(C)(C)[C@](O)(C[C@@H]4C/C(=C/C(=O)OC)C[C@H](/C=C/C(C)(C)[C@]1(O)O2)O4)O3"
result = "< 8.10"

[[record]]
molecule = "Nc1ccn([C@@H]2O[C@H](CO)[C@@H](O)C2(F)F)c(=O)n1"
result = 7.35

[[record]]
molecule = "COc1cc2c(Nc3ccc(NC(=O)c4ccccc4)cc3)ncnc2cc1OCCCN1CCOCC1"
result = 6.32

[[record]]
molecule = "COc1cc2ncn(-c3cc(OCc4ccccc4C(F)(F)F)c(C(N)=O)s3)c2cc1OC [GW843682X]"
result = "< 6.59"


Hey, quick one: what's pIC50 for each of these?
1. CO[C@H]1C[C@@H]2CC[C@@H](C)[C@@](O)(O2)C(=O)C(=O)N2CCCC[C@H]2C(=O)O[C@H]([C@H](C)C[C@@H]2CC[C@@H](OC(=O)C(C)(CO)CO)[C@H](OC)C2)CC(=O)[C@H](C)/C=C(\C)[C@@H](O)[C@@H](OC)C(=O)[C@H](C)C[C@H](C)/C=C/C=C/C=C/1C
2. Nc1cccc2c1CN(C1CCC(=O)NC1=O)C2=O (centres undefined) [LENALIDOMIDE]
3. COc1cc2ncn(-c3cc(OCc4ccccc4S(C)(=O)=O)c(C#N)s3)c2cc1OC [GSK-319347A]
4. CS(=O)(=O)c1ccc(C(=O)Nc2ccc(Cl)c(-c3ccccn3)c2)c(Cl)c1

[7.07, "< 5.30", "< 5.30", "< 5.00"]

###

system: OS-RC-2; experiment: cells; format: functional, cell-based, Homo sapiens; details: Homo sapiens, OS-RC-2;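 further: growth inhibition of human OS-RC-2 cells, measured by a cell viability assay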
Description: SANGER: Inhibition of human OS-RC-2 cell growth in a cell viability assay.
pIC50: −log10 of the molar value.
measurement-name: pIC50

Observe how each entry below is paired with its result.
[[record]]
smiles = "CC(=O)O[C@H]1C(=O)[C@@]2(C)[C@H]([C@H](OC(=O)c3ccccc3)[C@]3(O)C[C@H](OC(=O)[C@H](O)[C@@H](NC(=O)c4ccccc4)c4ccccc4)C(C)=C1C3(C)C)[C@]1(OC(C)=O)CO[C@@H]1C[C@@H]2O"
measurement_name = "pIC50"
result = 7.11

[[record]]
smiles = "Cc1cn(-c2cc(NC(=O)c3ccc(C)c(Nc4nccc(-c5cccnc5)n4)c3)cc(C(F)(F)F)c2)cn1"
measurement_name = "pIC50"
result = "< 5.70"


GET /values?readout=pIC50&item= CC1(C)CNc2cc(NC(=O)c3cccnc3NCc3ccncc3)ccc21
< 5.70
